Exercise: for every item that follows, state its recorded pIC50.
Test: Anticancer human tumor 997537-175-T-J1-PDC patient-derived colon adenocarcinoma cell line growth inhibition [POLQ]
Settings: 997537-175-T-J1-PDC complex spheroid viability, combination with POLQ inhibitors; curve of first compound; second compound 3.16 µM
Kindly note that pIC50 refers to -log10 of the concentration in mol/L and answer with the value alone.

For COc1cccc2c1C(=O)c1c(O)c3c(c(O)c1C2=O)CC(O)(C(=O)CO)CC3OC1CC(N)C(O)C(C)O1 (stereo not given) + COC1C(OC(N)=O)C(O)C(Oc2ccc3c(O)c(NC(=O)c4ccc(O)c(CC=C(C)C)c4)c(=O)oc3c2C)OC1(C)C , what is its reported pIC50?
5.69

For CCCS(=O)(=O)Nc1ccc(F)c(C(=O)c2c[nH]c3ncc(-c4ccc(Cl)cc4)cc23)c1F + Cc1cccc(N(C)C(=O)C2C(O)CCN2c2nc(C)cc(C(F)(F)F)c2C#N)c1 , what is its reported pIC50?
5.18

---

Assay: Anticancer human tumor 997537-175-T-J1-PDC cell line growth inhibition [POLQ]
Details: 997537-175-T-J1-PDC complex spheroid viability, combination with POLQ inhibitors; curve of first compound; second compound 3.16 µM
Exercise: for every item that follows, state its recorded pIC50.
Kindly note that pIC50 refers to -log10 of the concentration in mol/L and answer with the value alone.

For CC1COCCN1c1cc(-c2ccnn2C)c2ccnc(-c3ccn[nH]3)c2n1 (stereo not given) + COC1C(OC(N)=O)C(O)C(Oc2ccc3c(O)c(NC(=O)c4ccc(O)c(CC=C(C)C)c4)c(=O)oc3c2C)OC1(C)C , what is its reported pIC50?
6.18

For CC(=O)O[C@H]1C(=O)[C@@]2(C)[C@H]([C@H](OC(=O)c3ccccc3)[C@]3(O)C[C@H](OC(=O)[C@H](O)[C@@H](NC(=O)c4ccccc4)c4ccccc4)C(C)=C1C3(C)C)[C@]1(OC(C)=O)CO[C@@H]1C[C@@H]2O + Nc1ccc(C#CCN(C(=O)Cc2ncc(C(F)(F)F)cc2C(F)(F)F)c2ccc(F)cc2)nn1 , what is its reported pIC50?
7.49

---

Exercise: for every item that follows, state its recorded viability, T/C.
Experiment: Anticancer human tumor 997537-175-T-J1-PDC cell line growth inhibition [POLQ]
Conditions: 997537-175-T-J1-PDC complex spheroid viability, combination with POLQ inhibitors; second compound 1 µM; first compound 0.0316 µM; stronger effect = lower value
Give just the number in %; leave the unit off.

For C#Cc1c(F)ccc2cc(O)cc(-c3ncc4c(N5CC6CCC(C5)N6)nc(OCC56CCCN5CC(F)C6)nc4c3F)c12 (stereo not given) + Nc1ccc(C#CCN(C(=O)Cc2ncc(C(F)(F)F)cc2C(F)(F)F)c2ccc(F)cc2)nn1 , what is its reported viability, T/C?
106

For C=CCn1c(=O)c2cnc(Nc3ccc(N4CCN(C)CC4)cc3)nc2n1-c1cccc(C(C)(C)O)n1 + Cc1cccc(N(C)C(=O)C2C(O)CCN2c2nc(C)cc(C(F)(F)F)c2C#N)c1 , what is its reported viability, T/C?
106

For CNCc1ccc(-c2[nH]c3cc(F)cc4c3c2CCNC4=O)cc1 + COC1C(OC(N)=O)C(O)C(Oc2ccc3c(O)c(NC(=O)c4ccc(O)c(CC=C(C)C)c4)c(=O)oc3c2C)OC1(C)C , what is its reported viability, T/C?
94.7

For COc1cc2cc(C(=O)CCC(=O)O)sc2cc1OC + Nc1ccc(C#CCN(C(=O)Cc2ncc(C(F)(F)F)cc2C(F)(F)F)c2ccc(F)cc2)nn1 , what is its reported viability, T/C?
94.4

For Cn1ncnc1[C@H]1c2n[nH]c(=O)c3cc(F)cc(c23)N[C@@H]1c1ccc(F)cc1 + Nc1ccc(C#CCN(C(=O)Cc2ncc(C(F)(F)F)cc2C(F)(F)F)c2ccc(F)cc2)nn1 , what is its reported viability, T/C?
120

---

Assay: Anticancer human tumor 997537-175-T-J1-PDC cell line growth inhibition [POLQ];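 note: luminescence signal used as a surrogate for viable cells; spheroids exposed to drugs for seven days before readout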
Conditions: 997537-175-T-J1-PDC complex spheroid viability, combination with POLQ inhibitors; curve of first compound; second compound 3.16 µM
Exercise: for every item that follows, state its recorded IC50.
Give just the number in nM; leave the unit off.

For CCc1c2c(nc3ccc(O)cc13)-c1cc3c(c(=O)n1C2)COC(=O)[C@]3(O)CC + COC1C(OC(N)=O)C(O)C(Oc2ccc3c(O)c(NC(=O)c4ccc(O)c(CC=C(C)C)c4)c(=O)oc3c2C)OC1(C)C , what is its reported IC50?
18.6

For COc1cccc2c1C(=O)c1c(O)c3c(c(O)c1C2=O)CC(O)(C(=O)CO)CC3OC1CC(N)C(O)C(C)O1 (stereo not given) + Nc1ccc(C#CCN(C(=O)Cc2ncc(C(F)(F)F)cc2C(F)(F)F)c2ccc(F)cc2)nn1 , what is its reported IC50?
2850

---

Assay: Anticancer human tumor 997537-175-T-J1-PDC cell line growth inhibition [POLQ];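 note: luminescence signal used as a surrogate for viable cells; spheroids exposed to drugs for seven days before readout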
Details: 997537-175-T-J1-PDC complex spheroid viability, combination with POLQ inhibitors; second compound 1 µM; first compound 0.01 µM; stronger effect = lower value
Reported endpoint: viability, T/C

For Cn1ncnc1[C@H]1c2n[nH]c(=O)c3cc(F)cc(c23)N[C@@H]1c1ccc(F)cc1 + Nc1ccc(C#CCN(C(=O)Cc2ncc(C(F)(F)F)cc2C(F)(F)F)c2ccc(F)cc2)nn1 , what is its reported viability, T/C?
99.4%

For COc1cccc(OCCCN)c1-c1cc(Nc2cnc(C#N)cn2)n[nH]1 + Nc1ccc(C#CCN(C(=O)Cc2ncc(C(F)(F)F)cc2C(F)(F)F)c2ccc(F)cc2)nn1 , what is its reported viability, T/C?
61.1%

For C=CCn1c(=O)c2cnc(Nc3ccc(N4CCN(C)CC4)cc3)nc2n1-c1cccc(C(C)(C)O)n1 + COC1C(OC(N)=O)C(O)C(Oc2ccc3c(O)c(NC(=O)c4ccc(O)c(CC=C(C)C)c4)c(=O)oc3c2C)OC1(C)C , what is its reported viability, T/C?
98.6%

---

Test: Anticancer human tumor 997537-175-T-J1-PDC cell line growth inhibition [POLQ];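 note: luminescence signal used as a surrogate for viable cells; spheroids exposed to drugs for seven days before readout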
Settings: 997537-175-T-J1-PDC complex spheroid viability, combination with POLQ inhibitors; curve of first compound; second compound 3.16 µM
pIC50: −log10 of the molar value.
Exercise: for every item that follows, state its recorded pIC50.

For COc1ccc([C@@H](O)c2cc(-c3ncnc4cc(N5CCOCC5)ccc34)c(F)cc2Cl)nn1 + Nc1ccc(C#CCN(C(=O)Cc2ncc(C(F)(F)F)cc2C(F)(F)F)c2ccc(F)cc2)nn1 , what is its reported pIC50?
< 5.00

For CCc1cc2c(N3CCc4c(cc(Cn5ccnc5)cc4-c4cn(C)nc4C(F)(F)F)C3=O)ccnc2c(OC)n1 + COC1C(OC(N)=O)C(O)C(Oc2ccc3c(O)c(NC(=O)c4ccc(O)c(CC=C(C)C)c4)c(=O)oc3c2C)OC1(C)C , what is its reported pIC50?
< 5.00

For COc1cc(C2c3cc4c(cc3C(OC3OC5COC(C)OC5C(O)C3O)C3COC(=O)C23)OCO4)cc(OC)c1O (stereo not given) + Nc1ccc(C#CCN(C(=O)Cc2ncc(C(F)(F)F)cc2C(F)(F)F)c2ccc(F)cc2)nn1 , what is its reported pIC50?
< 5.00

For O=C(Nc1ccc(O)c(NS(=O)(=O)c2ccc(F)cc2)c1)c1ccc(-c2ccccc2)cc1 + COC1C(OC(N)=O)C(O)C(Oc2ccc3c(O)c(NC(=O)c4ccc(O)c(CC=C(C)C)c4)c(=O)oc3c2C)OC1(C)C , what is its reported pIC50?
< 5.00

For CC1COCCN1c1cc(-c2ccnn2C)c2ccnc(-c3ccn[nH]3)c2n1 (stereo not given) + Nc1ccc(C#CCN(C(=O)Cc2ncc(C(F)(F)F)cc2C(F)(F)F)c2ccc(F)cc2)nn1 , what is its reported pIC50?
5.50

---

Experiment: Anticancer human tumor 997537-175-T-J1-PDC cell line growth inhibition [POLQ];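 note: luminescence signal used as a surrogate for viable cells; spheroids exposed to drugs for seven days before readout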
Settings: 997537-175-T-J1-PDC complex spheroid viability, combination with POLQ inhibitors; second compound 1 µM; first compound 0.316 µM; stronger effect = lower value
For each record, check the reported viability, T/C: if it is below 80% write true (1), else write false (0).

is_below(viability, T/C, 80%) for COc1cccc(OCCCN)c1-c1cc(Nc2cnc(C#N)cn2)n[nH]1 + Cc1cccc(N(C)C(=O)C2C(O)CCN2c2nc(C)cc(C(F)(F)F)c2C#N)c1 ?
true (1)

is_below(viability, T/C, 80%) for CCCS(=O)(=O)Nc1ccc(F)c(C(=O)c2c[nH]c3ncc(-c4ccc(Cl)cc4)cc23)c1F + COC1C(OC(N)=O)C(O)C(Oc2ccc3c(O)c(NC(=O)c4ccc(O)c(CC=C(C)C)c4)c(=O)oc3c2C)OC1(C)C ?
true (1)

is_below(viability, T/C, 80%) for CCc1c2c(nc3ccc(O)cc13)-c1cc3c(c(=O)n1C2)COC(=O)[C@]3(O)CC + Nc1ccc(C#CCN(C(=O)Cc2ncc(C(F)(F)F)cc2C(F)(F)F)c2ccc(F)cc2)nn1 ?
true (1)

is_below(viability, T/C, 80%) for C#Cc1c(F)ccc2cc(O)cc(-c3ncc4c(N5CC6CCC(C5)N6)nc(OCC56CCCN5CC(F)C6)nc4c3F)c12 (stereo not drawn) + COC1C(OC(N)=O)C(O)C(Oc2ccc3c(O)c(NC(=O)c4ccc(O)c(CC=C(C)C)c4)c(=O)oc3c2C)OC1(C)C ?
false (0)

is_below(viability, T/C, 80%) for CC(C)n1c(=O)n(C)c2cnc3cc(F)c(-c4ccc(OCCCN5CCCCC5)nc4)cc3c21 + Nc1ccc(C#CCN(C(=O)Cc2ncc(C(F)(F)F)cc2C(F)(F)F)c2ccc(F)cc2)nn1 ?
false (0)

is_below(viability, T/C, 80%) for CCc1cc2c(N3CCc4c(cc(Cn5ccnc5)cc4-c4cn(C)nc4C(F)(F)F)C3=O)cc(C)nc2c(OC)n1 + Nc1ccc(C#CCN(C(=O)Cc2ncc(C(F)(F)F)cc2C(F)(F)F)c2ccc(F)cc2)nn1 ?
false (0)

is_below(viability, T/C, 80%) for C=CC(=O)N1CCN(c2nc(=O)n(-c3c(C)ccnc3C(C)C)c3nc(-c4c(O)cccc4F)c(F)cc23)C(C)C1 (stereo not drawn) + COC1C(OC(N)=O)C(O)C(Oc2ccc3c(O)c(NC(=O)c4ccc(O)c(CC=C(C)C)c4)c(=O)oc3c2C)OC1(C)C ?
false (0)

is_below(viability, T/C, 80%) for Nc1ccn(C2OC(CO)C(O)C2(F)F)c(=O)n1 (stereo not drawn) + Cc1cccc(N(C)C(=O)C2C(O)CCN2c2nc(C)cc(C(F)(F)F)c2C#N)c1 ?
true (1)
